biological target: PDK1 (Homo sapiens, UniProt O15530); construct: His6 (N); assay: Test for the inhibition of PDK1 (flashplate, 33P-ATP); type: biochemical; settings: His6-PDK1 3.4 nM, 4 μM ATP, 30° C., 60 min
Sequence (O15530 51-556 limits assumed): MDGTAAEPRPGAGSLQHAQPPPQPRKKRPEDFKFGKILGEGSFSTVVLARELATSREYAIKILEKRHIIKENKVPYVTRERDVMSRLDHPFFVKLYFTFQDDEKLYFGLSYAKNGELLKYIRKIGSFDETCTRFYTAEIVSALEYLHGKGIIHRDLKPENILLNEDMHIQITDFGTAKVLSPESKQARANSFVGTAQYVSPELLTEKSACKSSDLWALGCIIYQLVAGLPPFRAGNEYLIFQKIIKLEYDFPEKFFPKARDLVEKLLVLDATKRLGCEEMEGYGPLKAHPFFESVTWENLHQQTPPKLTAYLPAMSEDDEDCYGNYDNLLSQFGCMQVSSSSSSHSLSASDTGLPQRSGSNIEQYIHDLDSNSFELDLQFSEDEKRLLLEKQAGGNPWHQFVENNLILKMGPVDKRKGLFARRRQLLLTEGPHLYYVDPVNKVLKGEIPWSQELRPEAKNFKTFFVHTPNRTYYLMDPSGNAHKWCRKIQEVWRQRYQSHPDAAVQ
Measured quantity: IC50 (nM)

CC(O)(c1cccc(F)c1)c1cc(-c2c[nH]c3ncc(-c4cnn(C(C)(C)C)c4)cc23)nc(N)n1 (stereo not shown) : 250

1: Cn1cc(-c2cnc3[nH]cc(-c4cc(C(C)(O)c5ccccc5F)nc(N)n4)c3c2)cn1 (racemic) [A102]
2: CC(O)(c1ccccc1)c1cc(-c2c[nH]c3ncc(-c4cnn(CCC(=O)N5CCCCC5)c4)cc23)nc(N)n1 (stereo not shown)
3: CCC[C@](O)(c1ccncc1)c1cc(-c2c[nH]c3ncc(-c4cnn(C)c4)cc23)nc(N)n1 (single isomer, unassigned)
4: Cn1cc(-c2cnc3[nH]cc(-c4cc(C(C)(O)c5ccncc5)nc(N)n4)c3c2)cn1 (stereo not shown) [A64]
5: CC(O)(c1ccccc1)c1cc(-c2c[nH]c3ncc(-c4cnn(CCC(=O)NCCN)c4)cc23)nc(N)n1 (stereo not shown)
Q: Arrange the 5 compounds from largest to smallest IC50. Give the labels in the order specified.
Ans: 2, 3, 5, 1, 4

I: CCC(OCOC)(c1cc(-c2c[nH]c3ncc(-c4cnn(C)c4)cc23)nc(N)n1)c1ccncc1F (stereo not shown) [A32]
II: CCCC(OCOC)(c1cccc(F)c1)c1cc(-c2c[nH]c3ncc(-c4cnn(C)c4)cc23)nc(N)n1 (stereo not shown)
III: COc1ccc(C(C)(O)c2cc(-c3c[nH]c4ncc(-c5cnn(C)c5)cc34)nc(N)n2)cn1 (stereo not shown)
Q: Number of compounds to sort: 3. Sort criterion: IC50, ascending. Give the labels in the order specified.
Ans: I, III, II
(I: 25 nM, III: 120 nM, II: 450 nM)

A: CC(C)n1cc(-c2cnc3[nH]cc(-c4cc(C(C)(O)C(C)C)nc(N)n4)c3c2)cn1 (stereo not shown)
B: CC[C@](O)(c1ccncc1)c1cc(-c2c[nH]c3ncc(-c4cnn(CC(=O)N5CCCCC5)c4)cc23)nc(N)n1 (single isomer, unassigned)
Q: Task for the reader: decide whether A or B has the larger IC50. Your answer should be the label attached to the chosen record.
Ans: A
(A: 28 nM, B: 8 nM)

P: CC(O)(c1ccccc1)c1cc(-c2c[nH]c3ncc(-c4cnn(S(C)(=O)=O)c4)cc23)nc(N)n1 (stereo not shown)
Q: COCOC(C)(c1cccc(C)c1)c1cc(-c2c[nH]c3ncc(-c4cnn(CCO)c4)cc23)nc(N)n1 (stereo not shown)
Q: Hi there, can you help? I need to know whether P or Q has lower measured IC50. Your answer should be the label attached to the chosen record.
Ans: Q
(Q: 59 nM, P: 140 nM)
